# Tested on: P. acnes NCTC737
# procedure.text: MIC and MBC against P. acnes by broth micro-dilution (CLSI M11-A5)
# Format: cell-based
# settings: anaerobic 37° C., 48 h, lowest concentration preventing visible growth
result.type: MIC (mg/L)

• CC/C=C\C/C=C\C/C=C\C/C=C\C/C=C\CCCC(=O)O [EPA, eicosapentaenoic acid] = 128

[P] NC[C@@H]1O[C@H](O[C@H]2[C@@H](O)[C@H](O[C@@H]3[C@@H](O)[C@H](N)C[C@H](N)[C@H]3O[C@H]3O[C@H](CN)[C@@H](O)[C@H](O)[C@H]3N)O[C@@H]2CO)[C@H](N)[C@@H](O)[C@@H]1O [NEO, Neomycin]
[Q] CCCCC/C=C\C/C=C\C/C=C\CCCCC(=O)O [GLA, gamma-linolenic acid]
// which entry has the larger MIC value, P or Q ? Mark your answer with the label of the selected entry. Q
